ASSAY_TARGET: T1, Recombinant Human IL-23 (human, UniProt Q9NPF7 20-189; P29460 23-328)
T1 sequence (looked up) 1: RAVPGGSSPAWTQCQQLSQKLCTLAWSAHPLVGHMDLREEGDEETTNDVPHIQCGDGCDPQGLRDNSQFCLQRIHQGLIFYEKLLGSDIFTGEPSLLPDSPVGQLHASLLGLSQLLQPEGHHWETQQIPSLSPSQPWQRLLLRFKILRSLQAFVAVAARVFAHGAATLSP
T1 sequence (looked up) 2: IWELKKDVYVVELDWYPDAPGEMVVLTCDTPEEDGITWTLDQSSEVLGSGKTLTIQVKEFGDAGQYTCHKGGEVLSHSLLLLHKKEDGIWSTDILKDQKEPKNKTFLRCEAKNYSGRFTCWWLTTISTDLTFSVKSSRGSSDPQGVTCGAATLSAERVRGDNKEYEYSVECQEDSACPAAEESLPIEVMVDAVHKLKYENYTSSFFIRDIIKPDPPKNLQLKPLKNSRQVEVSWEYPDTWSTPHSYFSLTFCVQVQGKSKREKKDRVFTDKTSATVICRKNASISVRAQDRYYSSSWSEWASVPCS
METHOD: cell-based or functional assay
Reported Relative IC50, inhibition of IL-23-induced release of IL-17 from human PBMCs by item:

The following binders have reported results that may help.
IL-23 antibody clone 107 (antibody, human IgG1, kappa, L234A L235A, V domains shown) VH: QVQLVQSGAEVKKPGSSVKVSCKASGYTFTAQTIHWMRQAPGQGLEWIGYIYPRDDTPKYNPNFKGKVTITADKSTSTAYMELSSLRSEDTAVYYCAIPDRSGYAWFDYWGQGTLVTVSS VL: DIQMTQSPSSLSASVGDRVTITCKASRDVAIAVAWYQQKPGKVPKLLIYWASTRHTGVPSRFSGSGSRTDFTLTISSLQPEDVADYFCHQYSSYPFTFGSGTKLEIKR | 0.67 relative to Reference Antibody 1
IL-23 antibody clone 202 (antibody, human IgG1, kappa, L234A L235A, V domains shown, Full antibody format) VH: EVQLLESGGGLVQPGGSLRLSCAASGYTFTDQTIHWVRQAPGKGLEWIGYIYPRDDSPKYNENFKGRATLSADKSKNTAYLQMNSLRAEDTAVYYCAIPDRSGYAWFIYWGQGTTVTVSS VL: EIVMTQSPATLSVSPGERATLSCKASRDVAIAVAWYQQKPGQAPRLLLYWASTRHTGIPARFSGSGSRTEFTLTISSLQSEDFAVYYCHQYSSYPFTFGGGTKVEIKR | 0.79 relative to Reference Antibody 1

// next entry
Measured Relative IC50, inhibition of IL-23-induced release of IL-17 from human PBMCs of IL-23 antibody clone 203 (antibody, human IgG1, kappa, L234A L235A, V domains shown, Full antibody format) VH: EVQLLESGGGLVQPGGSLRLSCAASGYTFTDQTIHWVRQAPGKGLEWIGYIYPRDDSPKYNENFKGRATLSADKSKNTAYLQMNSLRAEDTAVYYCAIPDRSGYAWFIYWGQGTTVTVSS VL: EIVMTQSPATLSVSPGERATLSCKASRDVAIAVAWYQQKPGQAPRLLLFWASTRHTGIPARFSGSGSRTEFTLTISSLQSEDFAVYYCHQYSSYPFTFGGGTKVEIKR : 0.78 relative to Reference Antibody 1
